System: PXR homodimer (NR concentration 270 nM)
Measurement Description: PBM binding z-score (relative to random genomic background probes); higher = stronger binding; sequences stand for … in GC…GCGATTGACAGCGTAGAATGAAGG
Property Label: PBM binding z-score
Hey, just send me the number, nothing else.

Specify reported PBM binding z-score for the sequence shown: `CGAACTAGGTCAAGGTCAGTGAATCTCCGCACGC`
1.03

Answer with the recorded PBM binding z-score of `CGAACTAGGTCATCCAGGACAGTAAATACATTGA` only.
1.3

Find the measured PBM binding z-score of `TAGCCTAGGTCATTCCGGGGCCAGTATAGAAAGC` and report it.
-0.216

For the sequence `ACAGACAGGTGAGTGAAGGTAACTCGGCTGGACG` , give its reported PBM binding z-score.
-0.431

Specify PBM binding z-score for `CTGAGTAGGTTATGGGGCATTCAGGCAACGGTGA` and stop.
0.0116

For `TCGAGTAGGTTAGTCGTGGCATTCAGCCAACATA` , write its PBM binding z-score.
-0.596

====

Could you please report measured PBM binding z-score for the items listed next?
Test system: PXR:RXRa (NR concentration 270 nM, RXRa partner concentration 90 nM)
Measurement Description: PBM binding z-score (relative to random genomic background probes); higher = stronger binding; sequences stand for … in GC…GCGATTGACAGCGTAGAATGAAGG
Lab note: jot down the number only; don't add units.

Enter recorded PBM binding z-score with PXR:RXRa (NR concentration 270 nM, RXRa partner concentration 90 nM) for `TCTGCTAGGTCAGTTGGTCCGCTAACGAGCTGCC` here.
-0.0468

Please report PBM binding z-score with PXR:RXRa (NR concentration 270 nM, RXRa partner concentration 90 nM) for item `ATCTCTAGGTGAAGATAGTTCAGTGAATGCAAAT` .
1.58

Report the value of PBM binding z-score obtained on PXR:RXRa (NR concentration 270 nM, RXRa partner concentration 90 nM) for `GCTTACGGATCAAAGGTTATAGCATGAATAGAAT` .
2.38

Return reported PBM binding z-score for target or system PXR:RXRa (NR concentration 270 nM, RXRa partner concentration 90 nM), item `TAGCCTAGGTCATTGGGCCATTATAGTACGCATC` .
1.86

Provide PXR:RXRa (NR concentration 270 nM, RXRa partner concentration 90 nM) PBM binding z-score reading for `CCGAGTGGGGCAGAAAGGTTACCATACCATCCGG` .
1.05

Quote PBM binding z-score with test system PXR:RXRa (NR concentration 270 nM, RXRa partner concentration 90 nM) for `TCATATAGATAAAAGGTGAAAGTCGGTGTGGTAA`
1.12

For PXR:RXRa (NR concentration 270 nM, RXRa partner concentration 90 nM), give PBM binding z-score of the listed sequence: `GATAGAGGGTCAGCTAGAGGCCAGAGTATGGAAA`
2.44

Fill in PBM binding z-score for `TCTCGGAGGACACGAAAGGTCAGAGATCGACATC` tested with PXR:RXRa (NR concentration 270 nM, RXRa partner concentration 90 nM).
3.95

Report PBM binding z-score from PXR:RXRa (NR concentration 270 nM, RXRa partner concentration 90 nM) testing of `ATATGTAGGTTACATCCGGGTCATTCGGGCTATG`
3.48

Please report PBM binding z-score with PXR:RXRa (NR concentration 270 nM, RXRa partner concentration 90 nM) for item `AGAACGACGGCACGCTGAGTTGATAGCAGAGTAG` .
-0.462

Would you please give the reported PBM binding z-score of `TGAATGAGGTTAAAGATCGGGGAACGTGGCGTCG` with PXR:RXRa (NR concentration 270 nM, RXRa partner concentration 90 nM)?
1.55

Retrieve PBM binding z-score on PXR:RXRa (NR concentration 270 nM, RXRa partner concentration 90 nM); query `TCTTCTAGATCAATAGAGGTTAAGAAAGTGCGCT`
3.02

Given `TCTCGGAGGACACGGAAGGTCAGAGCTCGACATC` , report its PBM binding z-score on PXR:RXRa (NR concentration 270 nM, RXRa partner concentration 90 nM).
2.53

Given `TAGCCTAGGTCATTGGGCAAGTATAGTACGCATC` , report its PBM binding z-score on PXR:RXRa (NR concentration 270 nM, RXRa partner concentration 90 nM).
1.64

# return PBM binding z-score of `AGTACAGGGTCATCGTAGGCCAGAGTACGCACAG` (system: PXR:RXRa (NR concentration 270 nM, RXRa partner concentration 90 nM))
4.88

Tell me PBM binding z-score of `GCGACTGGGGCATCAGCAGGTTACCATTACTTAA` when tested on PXR:RXRa (NR concentration 270 nM, RXRa partner concentration 90 nM).
-0.132

# return PBM binding z-score of `TGAATGAGGTTATAAGATCAGGGATCGTTGCAAA` (system: PXR:RXRa (NR concentration 270 nM, RXRa partner concentration 90 nM))
0.783

Identify measured PBM binding z-score obtained with PXR:RXRa (NR concentration 270 nM, RXRa partner concentration 90 nM) for `CCTATTAGTTGACCATAAGGGCCACCGAAGCTCG` .
-0.0446

Identify measured PBM binding z-score obtained with PXR:RXRa (NR concentration 270 nM, RXRa partner concentration 90 nM) for `TCAGACATGTGAAGGTAACTCAGGTACGCAGTCG` .
0.383

Recall the reported PBM binding z-score of `CGTCCAAGATCAATGCTAGGTCAGTGAAAGCATT` on PXR:RXRa (NR concentration 270 nM, RXRa partner concentration 90 nM) and write it down.
0.204

# lookup: PXR:RXRa (NR concentration 270 nM, RXRa partner concentration 90 nM) PBM binding z-score, key = `TCTAGTTGGGCACGGAGGTCACACACGACGGGTA`
3.91

Give measured PBM binding z-score for `ACTAGCAGACCAAGGGTCACTCAAGATTAGTCCG` (PXR:RXRa (NR concentration 270 nM, RXRa partner concentration 90 nM)).
2.8

Specify PBM binding z-score for `CCTACTGGGCCACGGAAGGTCATTGATTCAGTGA` , system PXR:RXRa (NR concentration 270 nM, RXRa partner concentration 90 nM).
3.57

Report value only: PBM binding z-score, PXR:RXRa (NR concentration 270 nM, RXRa partner concentration 90 nM), `CCTGCTAGGTCATGGTCAGATAATCTACAGTATG`
1.35

State, for PXR:RXRa (NR concentration 270 nM, RXRa partner concentration 90 nM), measured PBM binding z-score of the sequence listed here: `TTACCAAGGTGAAGGTCGGTGATCCCTCTGTAGA`
0.481

Write down the reported PBM binding z-score (system: PXR:RXRa (NR concentration 270 nM, RXRa partner concentration 90 nM)) of `TCACGGAGGACACGAAAGGTCAGAGCTCGACATC`
4.03

With PXR:RXRa (NR concentration 270 nM, RXRa partner concentration 90 nM) as the test system, provide measured PBM binding z-score for this sequence: `ATCTCTAGGTAAGACTCAGTTCAGTGGAGAACGC`
1.32

Determine reported PBM binding z-score for `GGAACGAGGGCAAGTTGATAGCAGAGTTTGATGG` ; test system: PXR:RXRa (NR concentration 270 nM, RXRa partner concentration 90 nM).
0.937

State the measured PBM binding z-score (PXR:RXRa (NR concentration 270 nM, RXRa partner concentration 90 nM)) of `AGTCAAAGTTCATCTAGGTAACGTAGGATATGCT`
5.12

Provide PBM binding z-score, tested on PXR:RXRa (NR concentration 270 nM, RXRa partner concentration 90 nM), for `CGTCCAAGGTCATAGAAGGTCAGTGAAGACAGAT` .
6.39

Fill in: PBM binding z-score on PXR:RXRa (NR concentration 270 nM, RXRa partner concentration 90 nM), entry `TCTCGGAGGACACGTAAGGTCAGAGCTCGACATC`
3.15

Determine reported PBM binding z-score for `GCTGCTAGGCCAACTGATGGTCAGCTAAAGCTCG` ; test system: PXR:RXRa (NR concentration 270 nM, RXRa partner concentration 90 nM).
-0.987

Lab note: record PBM binding z-score of `CTCGAAAGGTCGTGCTCAGGTGAGTAGACCAAAC` tested on PXR:RXRa (NR concentration 270 nM, RXRa partner concentration 90 nM).
3.11

State PBM binding z-score (PXR:RXRa (NR concentration 270 nM, RXRa partner concentration 90 nM)) of `GGAACGACGGCAAGTTGATAGCAGAGTTTGATGG` .
-0.547

Param request: PBM binding z-score | system PXR:RXRa (NR concentration 270 nM, RXRa partner concentration 90 nM) | item `GGAACGAGGGCAAGTTGATAGAAGAGTTTGATGG`
0.801

# assay system PXR:RXRa (NR concentration 270 nM, RXRa partner concentration 90 nM): give PBM binding z-score of `CGAACTAGGTCATTGACAAGACAGTGAATAGTAA`
1.26

Report measured PBM binding z-score on PXR:RXRa (NR concentration 270 nM, RXRa partner concentration 90 nM); entry: `GCTTGTAGATTAAGGTTAAGAAAGACTAAGCTAA`
0.375

Name the value of PBM binding z-score reported for `TAGCCTCGGTCAGATCGGGCCAGTATACGCTATA` when tested on PXR:RXRa (NR concentration 270 nM, RXRa partner concentration 90 nM).
-0.533

Quote PBM binding z-score with test system PXR:RXRa (NR concentration 270 nM, RXRa partner concentration 90 nM) for `CCAGACAGGTAAAAGGTAACTCAGTCTGGTACGC`
0.265

Report its PBM binding z-score with PXR:RXRa (NR concentration 270 nM, RXRa partner concentration 90 nM) as the test system: `AGTCAAAGTTCACTAGGTAACCTAAGATTCAGCT`
4.37

Enter measured PBM binding z-score, system PXR:RXRa (NR concentration 270 nM, RXRa partner concentration 90 nM), for the sequence shown: `GCGACTGGTGCATCAGCAGGTTACCATAACTTAA`
-0.248

Look up and report PBM binding z-score, with PXR:RXRa (NR concentration 270 nM, RXRa partner concentration 90 nM) as system, for `TCTAGTCGGTCACGGAGGTCACACACGACGGGTA`
4.93

Provide the reported PBM binding z-score (system: PXR:RXRa (NR concentration 270 nM, RXRa partner concentration 90 nM)) for `CCTCGAAGGACAACAGGAGGTCAGAGCTGCCAGA`
1.94

State recorded PBM binding z-score with PXR:RXRa (NR concentration 270 nM, RXRa partner concentration 90 nM), entry `ATCGAAAGGTCGACGACGTGAGTATACACCGTTT` , no comment.
2.32

Please tell me the measured PBM binding z-score for `TCAAGCAGGCCAGAGGGTCACTCAAGAGGTACGG` ; system: PXR:RXRa (NR concentration 270 nM, RXRa partner concentration 90 nM).
1.65

Under PXR:RXRa (NR concentration 270 nM, RXRa partner concentration 90 nM): report PBM binding z-score of `CGTCAAAGTACAACTAAGGTAACGTAAAGCACGC` .
0.34

// fetch PBM binding z-score for `TCTGCTAGGTCAACGATGATCAGCTAATCTGCTA` ; system: PXR:RXRa (NR concentration 270 nM, RXRa partner concentration 90 nM)
0.896

Find the measured PBM binding z-score of `CCTTACGGGTCAAGGTCATAGCACGGGTGGTACG` with PXR:RXRa (NR concentration 270 nM, RXRa partner concentration 90 nM) as test system.
5.05

Report measured PBM binding z-score on PXR:RXRa (NR concentration 270 nM, RXRa partner concentration 90 nM); entry: `TCTTGTAGATCTACAGGAGGTTAAGAAAGATCGA`
0.739

Provide PBM binding z-score, recorded with PXR:RXRa (NR concentration 270 nM, RXRa partner concentration 90 nM), of `GCGACTGGGGCATCAGTAGGTTACCATAACTTAA`
0.02

Identify measured PBM binding z-score obtained with PXR:RXRa (NR concentration 270 nM, RXRa partner concentration 90 nM) for `ACAGACAGTTGAGTGAAGGTAACTCAGCTGGACG` .
-0.386
